Ref: PubChem BioAssay AID1963836

- Test system: 857933-349-R-J2-PDC complex spheroid viability
- PROTOCOL_DETAILS: Anticancer human tumor 857933-349-R-J2-PDC patient-derived colon adenocarcinoma cell line growth inhibition [POLQ]
- CONDITION_INFO: second compound 3.16 µM; first compound 0.0316 µM; hits give low values
Label YES when viability, T/C is strictly below 80%; at or above that, label NO.

Answered cases to consult:
MOLECULE	CLASS_LABEL
CC1COCCN1c1cc(C2(O)CC3CCC(C2)O3)c2cnn(-c3ccn[nH]3)c2n1 (stereo unspecified) + COC1C(OC(N)=O)C(O)C(Oc2ccc3c(O)c(NC(=O)c4ccc(O)c(CC=C(C)C)c4)c(=O)oc3c2C)OC1(C)C	YES
CC1COCCN1c1cc(C2(O)CC3CCC(C2)O3)c2cnn(-c3ccn[nH]3)c2n1 (stereo unspecified) + Cc1cccc(N(C)C(=O)C2C(O)CCN2c2nc(C)cc(C(F)(F)F)c2C#N)c1	YES
Nc1ccn(C2OC(CO)C(O)C2(F)F)c(=O)n1 (stereo unspecified) + Cc1cccc(N(C)C(=O)C2C(O)CCN2c2nc(C)cc(C(F)(F)F)c2C#N)c1	YES

Dear colleague, could you confirm whether viability, T/C of O=C(Nc1ccc(O)c(NS(=O)(=O)c2ccc(F)cc2)c1)c1ccc(-c2ccccc2)cc1 + Nc1ccc(C#CCN(C(=O)Cc2ncc(C(F)(F)F)cc2C(F)(F)F)c2ccc(F)cc2)nn1 falls below 80%? Thanks.
NO

* * *

Please go through the items and note down their viability, T/C.
- System: 857933-349-R-J2-PDC complex spheroid viability
- PROTOCOL_DETAILS: Anticancer human tumor 857933-349-R-J2-PDC cell line growth inhibition [POLQ];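 further: spheroids exposed to compounds for seven days before readout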
- CONDITION_INFO: second compound 1 µM; first compound 0.316 µM; hits give low values
One number for each entry, in %.

COMPOUND	QUANTITY_MEASURED	MEASUREMENT
C=CCn1c(=O)c2cnc(Nc3ccc(N4CCN(C)CC4)cc3)nc2n1-c1cccc(C(C)(C)O)n1 + COC1C(OC(N)=O)C(O)C(Oc2ccc3c(O)c(NC(=O)c4ccc(O)c(CC=C(C)C)c4)c(=O)oc3c2C)OC1(C)C	viability, T/C	95.8

Hello, I would appreciate it if you could give viability, T/C for each entry below.
1. CCc1cc2c(N3CCc4c(cc(Cn5ccnc5)cc4-c4cn(C)nc4C(F)(F)F)C3=O)ccnc2c(OC)n1 + COC1C(OC(N)=O)C(O)C(Oc2ccc3c(O)c(NC(=O)c4ccc(O)c(CC=C(C)C)c4)c(=O)oc3c2C)OC1(C)C
2. O=C(Nc1ccc(O)c(NS(=O)(=O)c2ccc(F)cc2)c1)c1ccc(-c2ccccc2)cc1 + Cc1cccc(N(C)C(=O)C2C(O)CCN2c2nc(C)cc(C(F)(F)F)c2C#N)c1
3. COc1cccc2c1C(=O)c1c(O)c3c(c(O)c1C2=O)CC(O)(C(=O)CO)CC3OC1CC(N)C(O)C(C)O1 (stereo not given) + Cc1cccc(N(C)C(=O)C2C(O)CCN2c2nc(C)cc(C(F)(F)F)c2C#N)c1
4. COc1cccc2c1C(=O)c1c(O)c3c(c(O)c1C2=O)CC(O)(C(=O)CO)CC3OC1CC(N)C(O)C(C)O1 (stereo not given) + Nc1ccc(C#CCN(C(=O)Cc2ncc(C(F)(F)F)cc2C(F)(F)F)c2ccc(F)cc2)nn1

1: 74.9; 2: 96.8; 3: 42.3; 4: 36.9
